System: mouse tail-tip fibroblasts (MTTFs)
ASSAY_TEXT: Spontaneous contraction of miRNA-transfected MTTFs after adding AA and BMP4
Assay type: cell-based
COND: AA and BMP4 added one day after miR-transfection; between 4-6 days
PROPERTY: spontaneously contracting cells

Worked set:
SUBSTANCE	MEASUREMENT
miR-208b-3p: synthetic miRNA mimic, Qiagen MSY0004939, 5′-AUAAGACGAACAAAAGGUUUGU-3′ (SEQ ID NO: 1) (listed as RNA, chemistry not given here; listed as Mus musculus)	appeared
miR-208a-3p: synthetic miRNA mimic, Qiagen MSY0000520, 5′-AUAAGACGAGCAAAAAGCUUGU-3′ (SEQ ID NO: 136) (chemistry not given here)	not
miR-1a-2-5p: synthetic miRNA mimic, Qiagen MSY0017047, 5′-ACAUACUUCUUUAUGUAGUACCCAUA-3′ (SEQ ID NO: 135) (chemistry not given here)	appeared
miR-499-5p: synthetic miRNA mimic, Qiagen MSY0003482, 5′-UUAAGACUUGCAGUGAUGUUU-3′ (SEQ ID NO: 3) (listed as RNA, chemistry not given here; listed as Mus musculus)	appeared

Let us examine a further case.
Task item: Complete the entry with spontaneously contracting cells for miR-208b-5p: synthetic miRNA mimic, Qiagen MSY0017280, 5′-AAGCUUUUUGCUCGCGUUAUGU-3′ (SEQ ID NO: 137) (chemistry not given here)
Reply: not
